- Test system: L1210 leukemia ip in BDF1 mice, survival T/C
- procedure_text: NCI In Vivo Anticancer Drug Screen. Data for tumor model L1210 Leukemia (intraperitoneal) in B6D2F1 (BDF1) mice
- experimental_parameters: endpoint: mean survival time; dose: 100.0 mg/kg/injection; schedule: Q04DX003 (ip); vehicle: acetone; higher = longer survival
Inconclusive results and toxic doses are left out.
measured_parameter: T/C

Known T/C results, listed for orientation:
molecule=COc1cc([N+](=O)[O-])c(C)cc1Br system_name="L1210 leukemia ip in BDF1 mice, survival T/C" measured_value="98 % of control"
molecule="COc1ccc2c(c1)CCCC2CC(=O)c1ccccc1 (stereo not drawn)" system_name="L1210 leukemia ip in BDF1 mice, survival T/C" measured_value="86 % of control"

Now for another entry.
*Q* Provide only the value of recorded T/C for CC(OC(=O)c1ccccc1)C(N)=S (stereo not drawn)
*A* 101 % of control

###

Here, each record is paired with measured T/C data.
- Tested on: L1210 leukemia ip in BDF1 mice, survival T/C
- procedure_text: NCI In Vivo Anticancer Drug Screen. Data for tumor model L1210 Leukemia (intraperitoneal) in B6D2F1 (BDF1) mice
- experimental_parameters: endpoint: mean survival time; dose: 20.0 mg/kg/injection; schedule: Q04DX003 (ip); vehicle: Klucel (hydroxypropylcellulose) (HPC); higher = longer survival
Inconclusive results and toxic doses are left out.

Check out these entries, answers already filled in.
molecule="OC(CN1CC1)c1ccccc1 (stereo not given)" system_name="L1210 leukemia ip in BDF1 mice, survival T/C" measured_value="97 % of control"
molecule=N#CC(C#N)c1c(F)c(F)c(C(F)(F)F)c(F)c1F system_name="L1210 leukemia ip in BDF1 mice, survival T/C" measured_value="98 % of control"
molecule=CN(C1CCCC1)C1CCCC1 system_name="L1210 leukemia ip in BDF1 mice, survival T/C" measured_value="94 % of control"

*Q* Input COC(=O)C1C2CC3c4[nH]c5ccc(OC)cc5c4CCN3CC2CC(OC(=O)c2cc(OC)c(OC)c(OC)c2)C1OC (stereo not given) , output reported T/C.
*A* 98 % of control

*Q* Specify reported T/C for the molecule shown: "COc1cc(C(C)=O)ccc1OS(C)(=O)=O"
*A* 106 % of control

###

- System: L1210 leukemia ip in BDF1 mice, survival T/C
- procedure_text: NCI In Vivo Anticancer Drug Screen. Data for tumor model L1210 Leukemia (intraperitoneal) in B6D2F1 (BDF1) mice
- experimental_parameters: endpoint: mean survival time; dose: 400.0 mg/kg/injection; schedule: Q04DX003 (ip); vehicle: acetone; higher = longer survival
Toxic doses and inconclusive results are not listed.
measured_parameter: T/C

compound="O=C1C=CC(=O)N1c1ccccc1Cl (tested in a mixture with another compound)" system_name="L1210 leukemia ip in BDF1 mice, survival T/C" measured_parameter=T/C measured_value="96 % of control"
compound=COC1=CCC2=C(CCO2)C1 system_name="L1210 leukemia ip in BDF1 mice, survival T/C" measured_parameter=T/C measured_value="96 % of control"
compound=CC(=O)NS(=O)(=O)c1ccc(C)cc1 system_name="L1210 leukemia ip in BDF1 mice, survival T/C" measured_parameter=T/C measured_value="97 % of control"
compound=COC(=O)CCC(=O)c1cccc2ccccc12 system_name="L1210 leukemia ip in BDF1 mice, survival T/C" measured_parameter=T/C measured_value="95 % of control"
compound="C/C(=C\\Cl)COC1CCCCO1 (configuration not stated)" system_name="L1210 leukemia ip in BDF1 mice, survival T/C" measured_parameter=T/C measured_value="101 % of control"
compound="CC1(c2ccc(Cl)cc2)NC(=O)N(CC(=O)Nc2ccccc2)C1=O (configuration not stated)" system_name="L1210 leukemia ip in BDF1 mice, survival T/C" measured_parameter=T/C measured_value="93 % of control"

# evaluate next
*Q* Report T/C, nothing else, for this compound: "Cc1cc([N+](=O)[O-])ccc1NC(=O)c1ccccc1"
*A* 93 % of control
